assay: Moisture absorption/retention test; assay type: physicochemical; conditions: ratio of weight increase at 35% RH to that at 65% RH
outcome.measure: (B)/(A) × 100(%)

molecule | outcome.measure | value
CCCCCCCC(=O)N[C@H](C(=O)[O-])C(C)C.[Na+] [Example 12, N-octanoyl-L-valine sodium salt] | (B)/(A) × 100(%) | 33.2

a: OCC(O)CO [Comparative Example 3, Glycerol, reference compound]
b: OC[C@@H](O)[C@@H](O)[C@H](O)[C@@H](O)CO [Comparative Example 4, Sorbitol, reference compound]
Request: Higher (B)/(A) × 100(%): a or b ? Indicate your choice by writing its label.
Response: a
